# Experimental target: human glycine transporter-2 (GlyT2) (Homo sapiens)
# Construct: The entire coding region of the human GlyT2 cDNA was cloned into the mammalian expression vector pClNeo; expressed in transfected cells; host or cells: Cos-7 cells (African green monkey kidney, ATCC), stably transfected, G418-selected; vector pClNeo
# Sequence (Q9Y345 whole entry): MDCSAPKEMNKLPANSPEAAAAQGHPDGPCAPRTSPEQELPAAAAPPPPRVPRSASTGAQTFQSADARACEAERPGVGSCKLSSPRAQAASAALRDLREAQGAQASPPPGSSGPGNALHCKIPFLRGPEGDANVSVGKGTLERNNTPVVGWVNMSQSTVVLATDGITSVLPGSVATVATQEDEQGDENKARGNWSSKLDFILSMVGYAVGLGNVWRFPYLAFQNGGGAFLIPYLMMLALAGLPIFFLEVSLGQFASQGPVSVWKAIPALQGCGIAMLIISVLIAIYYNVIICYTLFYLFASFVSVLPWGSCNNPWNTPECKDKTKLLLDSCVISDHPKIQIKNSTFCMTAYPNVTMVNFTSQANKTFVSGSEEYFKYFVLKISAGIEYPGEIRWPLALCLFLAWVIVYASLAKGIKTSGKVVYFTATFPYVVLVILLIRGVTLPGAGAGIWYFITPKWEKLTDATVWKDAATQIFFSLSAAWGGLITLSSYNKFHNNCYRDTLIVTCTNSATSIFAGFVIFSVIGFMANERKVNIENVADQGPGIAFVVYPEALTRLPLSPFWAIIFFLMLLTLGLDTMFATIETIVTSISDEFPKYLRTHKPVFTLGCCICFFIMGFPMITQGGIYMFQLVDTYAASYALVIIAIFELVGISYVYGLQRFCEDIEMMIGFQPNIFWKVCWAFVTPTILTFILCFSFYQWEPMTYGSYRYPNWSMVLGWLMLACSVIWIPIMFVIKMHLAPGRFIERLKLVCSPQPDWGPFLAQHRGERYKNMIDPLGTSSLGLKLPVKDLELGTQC
# Procedure details: Inhibition of [14C]-glycine uptake in COS-7 cells transfected with human GlyT2
# Format: cell-based
# Condition context: Table 3, 20 μM, 2 h at 37° C., Cos-7 cells stably transfected with human GlyT2
Listed below: IC50 values for each entry.
API: value field is a number in nM; no unit string.

O=C(CC[C@H](Cc1ccccc1)NC(=S)Nc1ccc(-c2ccccc2)cc1)NCCN1CCCC1: 89

Proceed to the following item.
Ask | Retrieve IC50 measured for O=C(NCCN1CCCC1)[C@H](Cc1ccccc1)NC(=S)Nc1ccc(Oc2ccc(Cl)cc2)cc1 and print it.
Reply | 32
